Taken from ChEMBL document CHEMBL1125330.

System: Rattus norvegicus
measurement_description: Post dosing time interval of maximum activity
Format: functional

compound	Time
NS(=O)(=O)c1cc2c(cc1Cl)NCNS2(=O)=O [HYDROCHLOROTHIAZIDE]	2 h
NS(=O)(=O)c1cc(C(=O)O)c(NCc2ccco2)cc1Cl [FUROSEMIDE]	1 h
CCc1nc2c(nc1C)C(N)=NS(=O)(=O)N2CC	2 h
Nc1nc(N)c2nc(-c3ccccc3)c(N)nc2n1	6 h

* * *

Species on record: Rattus norvegicus
measurement_description: Mean sodium excretion in rats (Control/Drug treatment value); value 0.44/2.68
Type: ADME, organism-based
measurement_conditions: in vivo
readout_label: Na

smiles	reported_value
CCCN1c2nc(C)c(C)nc2C(N)=NS1(=O)=O	6.1

* * *

Species on record: Rattus norvegicus
measurement_description: Mean urinary output in rats (Control/Drug treatment; value 23.3/29.9
Type: ADME, organism-based, Urine
measurement_conditions: in vivo
readout_label: V

smiles	reported_value
CCN1c2nc(C(F)(F)F)c(C(F)(F)F)nc2C(N)=NS1(=O)=O	1.3

* * *

Species on record: Rattus norvegicus
measurement_description: Mean urinary output in rats (Control/Drug treatment value); value 25.4/33.8
Format: ADME, organism-based, Urine
measurement_conditions: in vivo
readout_label: V

smiles	reported_value
CCc1nc2c(nc1CC)N(CC)S(=O)(=O)N=C2N	1.3

* * *

Tested on: Rattus norvegicus
measurement_description: Dose required to produce an excretion of 2 mequiv of Na+/kg bw/6h vs control groups
Format: functional
Catalogue of molecules with associated ED2

molecule	measurement_units	ED2
CCc1nc2c(nc1C)C(N)=NS(=O)(=O)N2CC	mg/kg	14.62
NS(=O)(=O)c1cc2c(cc1Cl)NCNS2(=O)=O [HYDROCHLOROTHIAZIDE]	mg/kg	1.57
NS(=O)(=O)c1cc(C(=O)O)c(NCc2ccco2)cc1Cl [FUROSEMIDE]	mg/kg	12.95
Nc1nc(N)c2nc(-c3ccccc3)c(N)nc2n1	mg/kg	3.8

* * *

Species: Rattus norvegicus
measurement_description: Mean sodium excretion in rats (Control/Drug treatment value); value 0.42/0.65
Assay type: ADME, organism-based
measurement_conditions: in vivo

smiles	Na
CCCc1nc2c(nc1C)C(N)=NS(=O)(=O)N2CC	1.5

* * *

Tested on: Rattus norvegicus
measurement_description: Mean urinary output in rats when compound administered at 40 mg/kg po and vehicle dosed at 157.94 umol/kg
Assay type: ADME, organism-based, Urine
Design: dose 40 mg/kg, route oral
measurement_conditions: in vivo
readout_label: V

smiles	reported_value
Nc1nc(N)c2nc(-c3ccccc3)c(N)nc2n1	38.1 ml 6hr-1 (kg of body weight)-1

* * *

Below, each of the compounds is paired with its reported K value.
Test system: Rattus norvegicus
measurement_description: Mean potassium excretion in rats when compound administered at 0 mg/kg po and vehicle dosed at 0 umol/kg
Format: ADME, organism-based
Parameters: dose 0 mg/kg, route oral
measurement_conditions: in vivo

compound	K
Nc1nc(N)c2nc(-c3ccccc3)c(N)nc2n1	0.5 m equiv 6hr-1 kg-1 (body weight)-1
NS(=O)(=O)c1cc(C(=O)O)c(NCc2ccco2)cc1Cl [FUROSEMIDE]	0.47 m equiv 6hr-1 kg-1 (body weight)-1
NS(=O)(=O)c1cc2c(cc1Cl)NCNS2(=O)=O [HYDROCHLOROTHIAZIDE]	0.53 m equiv 6hr-1 kg-1 (body weight)-1
CCc1nc2c(nc1C)C(N)=NS(=O)(=O)N2CC	0.49 m equiv 6hr-1 kg-1 (body weight)-1

* * *

Test system: Rattus norvegicus
measurement_description: Mean sodium excretion in rats when compound administered at 5 mg/kg po and vehicle dosed at 18.56 umol/kg
Format: ADME, organism-based
Parameters: dose 5 mg/kg, route oral
measurement_conditions: in vivo
readout_label: Na

smiles	experimental_system	readout_label	reported_value
CCc1nc2c(nc1C)C(N)=NS(=O)(=O)N2CC	Rattus norvegicus	Na	0.8 m equiv 6hr-1 kg-1 (body weight)-1

* * *

Species on record: Rattus norvegicus
measurement_description: Mean sodium excretion in rats (Control/Drug treatment value); value 0.41/2.06
Assay type: ADME, organism-based
measurement_conditions: in vivo
readout_label: Na

smiles	readout_label	reported_value
CCCN1c2nc(CC)c(C)nc2C(N)=NS1(=O)=O	Na	5

* * *

Species on record: Rattus norvegicus
measurement_description: Mean urinary output in rats (Control/Drug treatment value); value 27.7/36.4
Type: ADME, organism-based, Urine
measurement_conditions: in vivo

smiles	V
CCN1c2nc(C)c(C)nc2C(N)=NS1(=O)=O	1.3
